# Tested on: BS-C-1 cells
# Run conditions: African green monkey
Here, each record is paired with measured Tox 72 h TC50 data.

1) O=C1/C(=C/C2CCCO2)CC/C1=C\C1CCCO1 (stereo not drawn) : >100 ∞M
2) CCn1c2ccccc2c2ccc(/C=N/n3cnnc3)cc21 : 36 ∞M
3) Cc1cc(OC(=O)c2ccco2)nc(SCc2c(Cl)cccc2Cl)n1 : >100 ∞M
4) Cc1cc(/N=C/c2cc(Cl)cc(Cl)c2O)no1 : 50 ∞M

For reference, reported Tox 72 h TC50 for "CC(=O)n1c2ccccc2c2nc(C)sc21" stands at >200 ∞M

For reference, reported Tox 72 h TC50 for "O=C(O)Cn1c2ccc(Cl)cc2c2nc3ccccc3nc21" stands at 13 ∞M

For reference, reported Tox 72 h TC50 for "O=C(Nc1ccccc1C(=O)O)OCC1c2ccccc2-c2ccccc21" stands at 40 ∞M

For reference, reported Tox 72 h TC50 for "Cc1c(/N=C/c2cc(Br)cc(Br)c2O)cccc1C(=O)O" stands at 38 ∞M

For reference, reported Tox 72 h TC50 for "Cc1ccc2c(Sc3ccc(Cl)cc3)c(C(=O)O)[nH]c2c1" stands at 174 ∞M

* * *

# System: vaccinia virus WR in BS-C-1 cells
# Assay type: cell-based
Reported metric: Trapped by dsDNA

1) Cc1cc(/N=C/c2cc(Cl)cc(Cl)c2O)no1 : No
2) O=C(O)Cn1c2ccc(Cl)cc2c2nc3ccccc3nc21 : No
3) CCS(=O)(=O)N1CCN=C1SCc1ccc(Cl)cc1Cl : No

* * *

# Test system: BS-C-1 cells
# Run conditions: African green monkey
Here, each record is paired with measured Tox 120 h TC50 data.

1. O=C(Nc1ccccc1C(=O)O)OCC1c2ccccc2-c2ccccc21 : 20 ∞M
2. N=C1/C(=C/c2coc3ccccc3c2=O)C(=O)N=C2SC=NN12 : 50 ∞M
3. N=C1S/C(=C/c2ccco2)C(=O)N1c1nccs1 : 50 ∞M
4. O=C1/C(=C/C2CCCO2)CC/C1=C\C1CCCO1 (centres unmarked) : 50 ∞M

For reference, reported Tox 120 h TC50 for "O=C(O)Cn1c2ccc(Cl)cc2c2nc3ccccc3nc21" stands at 30 ∞M

* * *

# Tested on: BS-C-1 cells
# Run conditions: African green monkey
Reported metric: Tox 72 h TC50

Some molecules with known Tox 72 h TC50 results, for comparison:
1. N=C1S/C(=C/c2ccco2)C(=O)N1c1nccs1 : >100 ∞M
2. N=C1/C(=C/c2coc3ccccc3c2=O)C(=O)N=C2SC=NN12 : >200 ∞M

Assay BS-C-1 cells, sample Nc1ccn(C[C@@H](CO)OCP(=O)(O)O)c(=O)n1.O.O [CDV, reference compound] , Tox 72 h TC50 read: >500 ∞M
